B1: EHEE_rd4_0726 (parent)
chain: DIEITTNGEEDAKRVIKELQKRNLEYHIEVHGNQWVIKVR

Variants of: B1
Assay: folding stability dG (cDNA display proteolysis); higher = more stable
Conditions: PBS, room temperature
experimental-endpoint: folding stability dG (kJ/mol)
Record the value in kJ/mol, omitting the unit from your answer.

Record excerpt, results attached:
>>> reported_value("I28L")
8.45
>>> reported_value("L24E")
4.21
>>> reported_value("V39T")
4.68
>>> reported_value("A12T")
7.27

Kindly review the next variant as well.
Q. // folding stability dG lookup, key: "D11S"
A. 9.63
